Each recorded value in this set is attributed to the supplement of paper PMC12783771.

B1: library; numbered along this chain (parent)
chain: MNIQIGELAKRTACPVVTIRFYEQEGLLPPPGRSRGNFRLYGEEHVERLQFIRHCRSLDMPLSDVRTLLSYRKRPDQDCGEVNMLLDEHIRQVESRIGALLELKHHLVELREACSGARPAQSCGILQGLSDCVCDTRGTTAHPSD

Variants of: B1
Experiment: sfGFP reporter fluorescence (15 h) (µM FITC); higher = higher leak
Conditions: library round: Round 1; ligand: none
OBSERVABLE: sfGFP reporter fluorescence
Kindly provide the number alone.

Look over these answered cases.
| VARIANT_LABEL | sfGFP reporter fluorescence |
| --- | --- |
| C55L K104V | 0.0651 |
| D135S P143W | 0.0694 |
| M60L D64T L107C | 0.71 |
| N83Y R111L | 0.0613 |
| P61S G128I D131C | 0.12 |
| P61N D131A P143W | 0.0886 |

Prompt line: Item M84A D131H : provide sfGFP reporter fluorescence
Response line: 0.0584

Prompt line: Quickly give me recorded sfGFP reporter fluorescence for P61D D64K E112H
Response line: 0.156

Prompt line: Give sfGFP reporter fluorescence for the following variant: E112I D135A
Response line: 0.063

Prompt line: Specify measured sfGFP reporter fluorescence for P61D D64K D135A .
Response line: 0.15

Prompt line: Please look at this variant and report its sfGFP reporter fluorescence: D131F D135A
Response line: 0.0667
